- Test system: HepG2 (Liver) cancer cell line
- TEST_DESCRIPTION: Cytotoxic activity (United States NCI protocol), HepG2
- Assay type: cell-based
- MEASUREMENT_CONTEXT: Homo sapiens; HepG2; lethal concentration; read-out: LC50
Rule: LC50 (NCI lethal concentration 50%) below 60 µM gives met, anything at or above gives not met.

Req: Hi there! Is LC50 (NCI lethal concentration 50%) for COc1ccc(C(N/N=C/c2ccco2)n2ccc3ccccc32)cc1 (stereo not shown) below 60 µM, do you know?
Resp: met

Req: Hi there! Is LC50 (NCI lethal concentration 50%) for CN(C)c1ccc(C(N/N=C/c2ccco2)n2ccc3ccccc32)cc1 (stereo not shown) below 60 µM, do you know?
Resp: not met

Req: Hi there! Is LC50 (NCI lethal concentration 50%) for Clc1ccc(C(N/N=C/c2ccco2)n2ccc3ccccc32)cc1 (stereo not shown) below 60 µM, do you know?
Resp: met

Req: Hi there! Is LC50 (NCI lethal concentration 50%) for Oc1ccccc1C(N/N=C/c1ccco1)n1ccc2ccccc21 (stereo not shown) below 60 µM, do you know?
Resp: met

Req: Hi there! Is LC50 (NCI lethal concentration 50%) for `C(=N\NCn1ccc2ccccc21)/c1ccco1` below 60 µM, do you know?
Resp: not met

Req: Hi there! Is LC50 (NCI lethal concentration 50%) for O=[N+]([O-])c1cccc(C(N/N=C/c2ccco2)n2ccc3ccccc32)c1 (stereo not shown) below 60 µM, do you know?
Resp: met

Source: paper PMC8144490
